Assay Conditions: buffer; pH 7.4; 200.0 µM
Parameter: solubility kinetic

INSERT INTO assay_data (compound, recorded_measurement) VALUES
  ('Cc1cc(C)nc(SCC(=O)Nc2nccs2)n1', '> 42.1 µg/mL'),
  ('O=C(c1cc(F)cc2c1OCOC2)N1CCN(c2ccc(F)cc2)CC1', '> 54.1 µg/mL'),
  ('O=C(COC(=O)CCc1ccccc1)NCc1ccc2c(c1)OCO2', '> 51.2 µg/mL'),
  ('O=C(NCc1ccco1)C(=S)N1CCCC1', '> 35.7 µg/mL'),
  ('COc1cccc(-c2cc(-c3cccnc3)c(C#N)c(N)n2)c1', '0.7 µg/mL'),
  ('Cc1cc(OC(=O)c2ccc(OC(C)C)cc2)c([N+](=O)[O-])c(=O)[nH]1', '> 49.8 µg/mL'),
  ('CCN(CC)S(=O)(=O)c1ccc2c(c1)NC(=O)C1CCCN21 (stereo not drawn)', '46.6 µg/mL'),
  ('O=C(Nc1ccc(F)cc1)/C(=C1/CCCCCN1)[N+](=O)[O-]', '> 44 µg/mL'),
  ('CCOc1ncccc1C(=O)Nc1ccc(S(=O)(=O)Nc2cc(C)nc(C)n2)cc1', '> 64.1 µg/mL'),
  ('O=C(O)CC[C@@H](C(=O)O)N1C(=O)c2ccccc2C1=O', '> 41.6 µg/mL'),
  ('Cc1noc(C)c1C(=O)NCC1COc2ccccc2O1 (stereo not drawn)', '> 43.2 µg/mL'),
  ('C=CCOc1ccc(C2NC(=O)c3ccccc3O2)cc1OCC (stereo not drawn)', '2.6 µg/mL'),
  ('CCOC(=O)C1CCCN(CC(=O)Nc2cc(C)cc(C)c2)C1 (stereo not drawn)', '29.3 µg/mL'),
  ('N#CC(C#N)=Cc1ccc(OCC(=O)N2CCOCC2)cc1', '> 44.6 µg/mL'),
  ('O=C1C2CCCCC2C(=O)N1c1nccs1 (stereo not drawn)', '> 35.4 µg/mL'),
  ('COc1cccc(CC(=O)OCC(=O)NCc2ccc3c(c2)OCO3)c1', '> 53.6 µg/mL'),
  ('Cc1c(C(=O)OCC(=O)N2CCN(c3ccccc3)CC2)oc2ccccc12', '4.5 µg/mL'),
  ('COc1ccc(Cc2cnc(N)s2)cc1', '31.8 µg/mL');
